Tested on: TNF-α
procedure_details: TNF-alpha in LPS-induced PBMCs / CD14+ monocytes, Meso Scale assay
Format: cell-based
condition_context: 0.1 μM
Kindly note that classification relies on inhibition at 0.1 µM with these boundaries: lowest = under 20%, middle = from 20% up to 50%, highest = 50% and over

O=C(Cc1ccc(Cl)c(CN2CCOCC2)c1)NCc1ccc2c(c1)CN([C@H]1CCCC(=O)NC1=O)C2=O    lowest
Cc1ccc(CNC(=O)NCc2ccc3c(c2)CN([C@H]2CCCC(=O)NC2=O)C3=O)cc1Cl    middle
Cc1ccc(NC(=O)NCc2ccc3c(c2)C(=O)N([C@H]2CCCC(=O)NC2=O)C3=O)cc1Cl    lowest
Cc1ccc(NC(=O)NCc2ccc3c(c2)CN([C@H]2CCCC(=O)NC2=O)C3=O)cc1Cl    highest
Cc1ccc(NC(=O)NCCc2ccc3c(c2)CN([C@H]2CCCC(=O)NC2=O)C3=O)cc1Cl    middle
Cc1ccc(CNC(=O)NCc2cccc3c2CN([C@H]2CCCC(=O)NC2=O)C3=O)cc1Cl    lowest

query: Category lookup for the compound `Cc1ccc(CCNC(=O)NCc2ccc3c(c2)CN([C@H]2CCCC(=O)NC2=O)C3=O)cc1Cl`
result: middle

query: Category lookup for the compound `Cc1ccc(NC(=O)NCc2ccc3c(c2C)CN([C@H]2CCCC(=O)NC2=O)C3=O)cc1Cl`
result: highest

query: Category lookup for the compound `Cc1ccc(NC(=S)NCc2ccc3c(c2)CN([C@H]2CCCC(=O)NC2=O)C3=O)cc1Cl`
result: lowest

query: Category lookup for the compound Cc1ccc(NC(=O)NCc2ccc3c(c2)CN(C2CCCC(=O)NC2=O)C3=O)cc1 (centres unmarked)
result: highest
